Recorded values, source the supplement of paper PMC9732359.

assay: protein stability index of a GFP-peptide fusion (yeast GPS) (PSI 1-4); higher = more stable; sorted into four equal gates, so the index is relative within each strain; details: pdr5∆
Measured quantity: protein stability index
Give bare numbers.

Here are 8 sequences together with their reported answers.
{"Query sequence": "NRPDNKNAQYHLLVKQG [RPN7]", "protein stability index": 2.58}
{"Query sequence": "LRRVNARYVIATSTKVS [RPL6A]", "protein stability index": 1.34}
{"Query sequence": "PGQKMSLFSHRKHTRGD [BRN1]", "protein stability index": 2.95}
{"Query sequence": "VNDRYQIPTPNNTVDPG [CSI1]", "protein stability index": 1.71}
{"Query sequence": "HASENISLSFSRPASYG [SIR4]", "protein stability index": 2.53}
{"Query sequence": "EREVFVDVKPKSPKERE [RPC25]", "protein stability index": 2.98}
{"Query sequence": "PSINLDPDNTSFSDENS [ESC2]", "protein stability index": 2.93}
{"Query sequence": "QGLKLAKKHKLNAITLD [SMC3]", "protein stability index": 2.64}

Below are some sequences; for each one, tell me its protein stability index.
1. SYFYRRIHVNPSYYGVR [BRR2]
2. SRRWRQRKNIQSLELMI [BRR2]
3. HLIKCFFKITLQRASSK [ITC1]
4. DQNNKKMVGLRGFNNQI [SNF2]
5. LDLKECYQFAEYLFKPQ [ARP7]

Marked response:
1. 1.85
2. 1.88
3. 1.19
4. 3.22
5. 3.06

Below are some sequences; for each one, tell me its protein stability index.
1. NTEEKAELQSNLQVELL [YGL100W/SEH1]
2. FNYNIFMHDPSVFYNIA [SIR2]

Marked response:
3.02
1.69
